- system name: Beta-lactamase (Escherichia coli K-12, UniProt P00811)
- Sequence (P00811 whole entry): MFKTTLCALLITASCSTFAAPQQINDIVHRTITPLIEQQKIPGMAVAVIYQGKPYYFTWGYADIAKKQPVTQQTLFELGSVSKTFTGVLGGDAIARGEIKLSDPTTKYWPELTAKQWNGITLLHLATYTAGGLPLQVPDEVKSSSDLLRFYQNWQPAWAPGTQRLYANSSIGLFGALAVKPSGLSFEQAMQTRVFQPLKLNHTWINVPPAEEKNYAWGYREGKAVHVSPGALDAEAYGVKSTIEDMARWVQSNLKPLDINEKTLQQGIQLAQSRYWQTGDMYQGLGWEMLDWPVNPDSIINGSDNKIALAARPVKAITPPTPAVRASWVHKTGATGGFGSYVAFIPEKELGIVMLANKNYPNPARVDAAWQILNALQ
- assay info: In vitro inhibitory concentration against AmpC enzyme
Reported IC50 values for the following compounds.

Worked cases, answers included:
COC(=O)/C=C/CC1C(=O)N2[C@@H](C(=O)O)C(C)(C)S(=O)(=O)[C@H]12 (stereo partly drawn) ... 29 µM
CC1(C)[C@H](C(=O)O)N2C(=O)[C@@H](Cc3cn(-c4ccc(O)cc4)nn3)[C@H]2S1(=O)=O ... 2.3 µM
CON(C)C(=O)/C=C/CC1C(=O)N2[C@@H](C(=O)O)C(C)(C)S(=O)(=O)[C@H]12 (stereo partly drawn) ... 17 µM
CC1(C)[C@H](C(=O)O)N2C(=O)C(C/C=C/C=O)[C@H]2S1(=O)=O (stereo partly drawn) ... 17 µM
CC(=O)/C=C/CC1C(=O)N2[C@@H](C(=O)O)C(C)(C)S(=O)(=O)[C@H]12 (stereo partly drawn) ... 100 µM

**Q:** Would you kindly share the measured IC50 for CC1(C)[C@H](C(=O)O)N2C(=O)C(C/C=C/C#N)[C@@H]2S1(=O)=O (stereo partly drawn) ?
**A:** > 100 µM

**Q:** Same question for "CC1(C)[C@H](C(=O)O)N2C(=O)[C@@H](Cc3cn(-c4ccc(N)cc4)nn3)[C@H]2S1(=O)=O" please.
**A:** 1.4 µM

**Q:** Try this compound next: "CC1(C)[C@H](C(=O)O)N2C(=O)[C@@H](Cc3cn(-c4ccc(F)cc4)nn3)[C@H]2S1(=O)=O"
**A:** 3 µM

* * *

- system name: Beta-lactamase TEM (Escherichia coli, UniProt P62593)
- Sequence (P62593 whole entry): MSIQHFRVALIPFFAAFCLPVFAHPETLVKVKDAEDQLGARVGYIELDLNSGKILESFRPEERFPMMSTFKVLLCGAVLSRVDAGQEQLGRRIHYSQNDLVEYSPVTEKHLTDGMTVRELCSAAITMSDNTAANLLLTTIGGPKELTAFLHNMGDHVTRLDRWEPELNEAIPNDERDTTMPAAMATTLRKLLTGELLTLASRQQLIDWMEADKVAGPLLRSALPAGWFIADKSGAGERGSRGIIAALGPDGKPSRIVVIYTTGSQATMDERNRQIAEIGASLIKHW
- assay info: In vitro inhibitory concentration against TEM-1 enzyme
value kind: pIC50
The meaning of pIC50 here: minus log10 of the concentration in molar units.

Reference set, count: 7
CC1(C)[C@H](C(=O)O)N2C(=O)[C@@H](Cc3cn(-c4ccc(O)cc4)nn3)[C@H]2S1(=O)=O ... 6.15
CC1(C)[C@H](C(=O)O)N2C(=O)[C@@H](Cc3cn(CC(N)Cc4ccc(O)cc4)nn3)[C@H]2S1(=O)=O (stereo partly drawn) ... 4.82
CC1(C)[C@H](C(=O)O)N2C(=O)[C@@H](Cc3cn(-c4ccc(N)cc4)nn3)[C@H]2S1(=O)=O ... 6.22
CC(=O)/C=C/CC1C(=O)N2[C@@H](C(=O)O)C(C)(C)S(=O)(=O)[C@@H]12 (stereo partly drawn) ... 5.19
CC1(C)[C@H](C(=O)O)N2C(=O)[C@@H](Cc3cn(CC4CCCN4)nn3)[C@H]2S1(=O)=O (stereo partly drawn) ... 5.10
COC(=O)/C=C/CC1C(=O)N2[C@@H](C(=O)O)C(C)(C)S(=O)(=O)[C@@H]12 (stereo partly drawn) ... 5.55
CC1(C)[C@H](C(=O)O)N2C(=O)C(C/C=C/C#N)[C@@H]2S1(=O)=O (stereo partly drawn) ... 4.62

Would you kindly look at the next entry?
**Q:** Suppose we examine the compound "CC1(C)[C@H](C(=O)O)N2C(=O)[C@@H](Cc3cn(-c4ccccc4)nn3)[C@H]2S1(=O)=O" ; what pIC50 value has been reported?
**A:** 6.00

* * *

Some molecules, each annotated with its measured pIC50.
- system name: Metallo-beta-lactamase type 2 (Bacteroides fragilis)
- Sequence (P25910 whole entry): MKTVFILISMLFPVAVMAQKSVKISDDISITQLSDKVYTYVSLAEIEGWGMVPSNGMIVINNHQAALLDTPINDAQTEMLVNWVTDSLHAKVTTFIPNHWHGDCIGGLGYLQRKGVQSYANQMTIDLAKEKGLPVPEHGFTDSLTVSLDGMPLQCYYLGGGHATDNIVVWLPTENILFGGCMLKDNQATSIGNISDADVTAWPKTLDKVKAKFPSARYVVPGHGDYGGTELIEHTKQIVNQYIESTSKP
- assay info: In vitro inhibitory concentration against CCRA enzyme
pIC50: −log10 of the molar value.

Here is how some molecules turned out for pIC50.
COC(=O)/C=C/CC1C(=O)N2[C@@H](C(=O)O)C(C)(C)S(=O)(=O)[C@H]12 (stereo partly drawn) ... < 4.00
CC1(C)[C@H](C(=O)O)N2C(=O)C(C/C=C/C=O)[C@H]2S1(=O)=O (stereo partly drawn) ... < 4.00

Next molecule, please.
**Q:** Lab note: need pIC50 with Metallo-beta-lactamase type 2 (Bacteroides fragilis) for entry CON(C)C(=O)/C=C/CC1C(=O)N2[C@@H](C(=O)O)C(C)(C)S(=O)(=O)[C@H]12 (stereo partly drawn) , please look it up.
**A:** < 4.00
